Attribute: Bliss excess
System: MM1S (Plasma Cell Myeloma);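 further: after 72 h of two-drug dosing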
Assay: Bliss excess, mean over the matrix (fraction); higher = more synergy
Assay metric: Bliss excess

>>> test_result("CN(C)CCCOc1ccc(-c2ccc3ncc4c(c3c2)n(C2CCOCC2)c(=O)n4C)cn1 [AZD0156] + O=C(c1cc(Cc2n[nH]c(=O)c3ccccc23)ccc1F)N1CCN(C(=O)C2CC2)CC1 [Olaparib] (first compound max 3 µM, partner max 3 µM)")
0.0231
>>> test_result("Cc1c2c(nn1C)CSCc1cc(n(C)n1)CSc1cc(c3ccccc3c1)OCCCc1c(C(=O)O)n(C)c3c-2c(Cl)ccc13 [AZD5991] + C1CN(CCC1(C(=O)N[C@@H](CCO)C2=CC=C(C=C2)Cl)N)C3=NC=NC4=C3C=CN4 [Capivasertib] (first compound max 1 µM, 7x7, partner max 3 µM)")
-0.0098
>>> test_result("CC1(C)CCC(CN2CCN(c3ccc(C(=O)NS(=O)(=O)c4ccc(NCC5CCOCC5)c([N+](=O)[O-])c4)c(Oc4cnc5[nH]ccc5c4)c3)CC2)=C(c2ccc(Cl)cc2)C1 [Venetoclax] + CN(C)CCCOc1ccc(-c2ccc3ncc4c(c3c2)n(C2CCOCC2)c(=O)n4C)cn1 [AZD0156] (first compound max 1 µM, 7x7, partner max 1 µM)")
0.0344
>>> test_result("Cc1c2c(nn1C)CSCc1cc(n(C)n1)CSc1cc(c3ccccc3c1)OCCCc1c(C(=O)O)n(C)c3c-2c(Cl)ccc13 [AZD5991] + C=CCn1c(=O)c2cnc(Nc3ccc(N4CCN(C)CC4)cc3)nc2n1-c1cccc(C(C)(C)O)n1 [AZD1775] (first compound max 1 µM, partner max 1 µM)")
0.0547
>>> test_result("CN(CCO)CC[C@H](CSc1ccccc1)Nc1ccc(S(=O)(=O)NC(=O)c2ccc(N3CCC([C@@H](O)c4ccccc4-c4ccc(Cl)cc4)CC3)cc2)cc1S(=O)(=O)C(F)(F)F [AZD4320] + Cn1cnc2c(F)c(Nc3ccc(Br)cc3Cl)c(C(=O)NOCCO)cc21 [Selumetinib] (first compound max 1 µM, 7x7, partner max 3 µM)")
0.0799
>>> test_result("CC1(C)CCC(CN2CCN(c3ccc(C(=O)NS(=O)(=O)c4ccc(NCC5CCOCC5)c([N+](=O)[O-])c4)c(Oc4cnc5[nH]ccc5c4)c3)CC2)=C(c2ccc(Cl)cc2)C1 [Venetoclax] + C[C@@H]1COCCN1C2=NC(=NC(=C2)C3(CC3)[S@](=N)(=O)C)C4=C5C=CNC5=NC=C4 [AZD6738] (first compound max 1 µM, 7x7, partner max 10 µM)")
0.0444
>>> test_result("NC1(C(=O)N[C@@H](CCO)c2ccc(Cl)cc2)CCN(c2ncnc3[nH]ccc23)CC1 [Capivasertib] + CC(=O)c1c(C)c2cnc(Nc3ccc(N4CCNCC4)cn3)nc2n(C2CCCC2)c1=O [Palbociclib] (first compound max 10 µM, 7x7, partner max 10 µM)")
-0.0128
